Tested System: Urotensin-2 receptor (Rattus norvegicus)
Sequence (P49684 whole entry): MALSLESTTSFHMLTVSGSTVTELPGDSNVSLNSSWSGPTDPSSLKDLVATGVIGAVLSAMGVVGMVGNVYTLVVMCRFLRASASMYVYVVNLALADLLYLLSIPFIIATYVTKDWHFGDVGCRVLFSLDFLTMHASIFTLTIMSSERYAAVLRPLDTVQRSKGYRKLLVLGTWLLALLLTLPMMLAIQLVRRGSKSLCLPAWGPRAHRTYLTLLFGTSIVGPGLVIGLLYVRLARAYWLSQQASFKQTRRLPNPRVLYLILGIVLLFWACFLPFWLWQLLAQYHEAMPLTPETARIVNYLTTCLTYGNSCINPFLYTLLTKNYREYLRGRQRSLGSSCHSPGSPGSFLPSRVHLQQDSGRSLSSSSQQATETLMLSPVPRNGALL
Experiment Summary: Agonist activity at UT2 receptor in Albino rat aorta assessed as induction of aortic contraction
Positions of bridges follow the written chain, without caps; N, C: chain ends. Non-standard residues stand in square brackets, D forms with d. Residues, ends and D or L forms follow the SMILES beside them. Phe(4-NO2) = N[C@@H](Cc1ccc([N+](=O)[O-])cc1)C(=O)O; 2Nal = N[C@@H](Cc1ccc2ccccc2c1)C(=O)O; Tic = O=C(O)[C@@H]1Cc2ccccc2CN1; Pen = CC(C)(S)[C@H](N)C(=O)O
Measure Name: pEC50
Formally, pEC50 is defined as -log10 of the concentration c, with c in mol/L.

# example entries with known answers
# Compound, pEC50
data = [
    ("CC(C)[C@H](NC(=O)[C@@H]1CSSC(C)(C)[C@H](NC(=O)[C@@H](N)Cc2ccc([N+](=O)[O-])cc2)C(=O)N[C@@H](Cc2ccccc2)C(=O)N[C@@H](Cc2c[nH]c3ccccc23)C(=O)N[C@@H](CCCCN)C(=O)N[C@@H](Cc2ccc(O)cc2)C(=O)N1)C(=O)O (H-[Phe(4-NO2)][Pen]FWKYCV-OH; disulfide 2-7)", 7.14),
    ("CC(C)[C@H](NC(=O)[C@@H]1CSSC(C)(C)[C@H](NC(=O)[C@@H](N)CC(=O)O)C(=O)N[C@@H](Cc2ccccc2)C(=O)N[C@@H](Cc2c[nH]c3ccccc23)C(=O)N[C@@H](CCCCN)C(=O)N[C@@H](Cc2ccc(O)cc2)C(=O)N1)C(=O)O (H-D[Pen]FWKYCV-OH; disulfide 2-7)", 9.60),
    ("CC(C)[C@H](NC(=O)[C@@H]1CSSC(C)(C)[C@H](NC(=O)[C@@H](N)Cc2ccc3ccccc3c2)C(=O)N[C@@H](Cc2ccccc2)C(=O)N[C@@H](Cc2c[nH]c3ccccc23)C(=O)N[C@@H](CCCCN)C(=O)N[C@@H](Cc2ccc(O)cc2)C(=O)N1)C(=O)O (H-[2Nal][Pen]FWKYCV-OH; disulfide 2-7)", 8.28),
]

Let us move to another entry and its pEC50.
(Q) Dear colleague, I am looking for the recorded pEC50 of the following compound: CC(C)[C@H](NC(=O)[C@@H]1CSSC(C)(C)[C@H](NC(=O)[C@@H]2Cc3ccccc3CN2)C(=O)N[C@@H](Cc2ccccc2)C(=O)N[C@@H](Cc2c[nH]c3ccccc23)C(=O)N[C@@H](CCCCN)C(=O)N[C@@H](Cc2ccc(O)cc2)C(=O)N1)C(=O)O (H-[Tic][Pen]FWKYCV-OH; disulfide 2-7)
(A) 8.87

meta.source: ChEMBL document CHEMBL1136926
